tested system: mu opiate receptor (MOR) (Rattus norvegicus, UniProt P33535)
Construct: from tissue; host or cells: striatum (membrane preparation)
Sequence (P33535 whole entry): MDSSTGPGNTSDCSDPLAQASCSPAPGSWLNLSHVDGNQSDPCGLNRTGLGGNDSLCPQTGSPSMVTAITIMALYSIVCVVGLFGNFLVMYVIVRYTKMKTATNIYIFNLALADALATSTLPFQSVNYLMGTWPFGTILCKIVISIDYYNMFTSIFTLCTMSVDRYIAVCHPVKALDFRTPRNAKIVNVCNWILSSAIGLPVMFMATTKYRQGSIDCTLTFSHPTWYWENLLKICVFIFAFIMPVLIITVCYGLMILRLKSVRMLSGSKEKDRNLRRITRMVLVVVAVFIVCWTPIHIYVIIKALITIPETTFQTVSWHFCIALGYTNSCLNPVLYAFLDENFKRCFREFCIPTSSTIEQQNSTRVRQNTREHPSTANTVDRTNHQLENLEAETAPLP
Assay type: biochemical
experimental setup: [35S]GTPγS binding to Gαo in striatal membranes; compound 1 μM plus 1 μM β-funaltrexamine (MOR antagonist)
Method: To assess the mu opiate receptor (MOR) agonist activity of positive compounds from the FLNA screening, compounds were tested in a [^35S]GTPγS binding assay using striatal membranes. […] The immunocomplexes so formed were collected by incubation at 25° C. for 30 minutes with 40 μl of agarose-conjugated protein A/G beads and centrifugation at 5,000×g at 4° C. for 5 minutes. […] The radioactivity in the suspension was determined by liquid scintillation spectrometry.
Listed next: entries and their corresponding Concentration of FLNA-Binding Compound as Agonist 1 μM + BFNA.
I only need the number, in %, no unit after it.

Here are 6 compounds together with their reported answers.
O=C(c1ccc([N+](=O)[O-])cc1)N1CCC2(CC1)OCCN2S(=O)(=O)c1ccc([N+](=O)[O-])cc1 [Compound C0022] = 13.4
COc1ccc(CC(=O)CC2c3c(cc4c(c3OC)OCO4)CC[N+]2(C)C)c(OC)c1 (stereo not shown) = 17.6
CC(C)c1ccc(S(=O)(=O)N2CCC3(CC2)OCCN3S(=O)(=O)c2ccc(C(C)C)cc2)cc1 = 10.9
CC1CN(CC(O)COc2cccc(N(C)C)c2)CC(C)O1 (stereo not shown) = 89.5
O=C(O)c1ccc(C(=O)N2CCC3(CC2)OCCN3S(=O)(=O)c2ccc(C(=O)O)cc2)cc1 = 90.7
CNc1ccc(S(=O)(=O)N2CCC3(CC2)OCCN3S(=O)(=O)c2ccc(NC)cc2)cc1 = 59.3

Okay, now this compound:
The measured Concentration of FLNA-Binding Compound as Agonist 1 μM + BFNA associated with O=S(=O)(c1ccc(OC(F)(F)F)cc1)N1CCC2(CC1)OCCN2S(=O)(=O)c1ccc(OC(F)(F)F)cc1 reads 4.6

====

Listed next: entries and their corresponding MOR agonist activity ([35S]GTPγS binding), compound as agonist.
tested system: mu opiate receptor (MOR) (Rattus norvegicus, UniProt P33535)
Construct: from tissue; host or cells: striatum (membrane preparation)
Assay type: biochemical
experimental setup: 0.1 μM; preliminary study, average of two runs
I only need the number, in %, no unit after it.

O=S(=O)(c1ccc(OC(F)(F)F)cc1)N1CCOC12CCN(CC1CC1)CC2 = 133.9
Cc1ccc(S(=O)(=O)N2CCOC23CCN(CC2CCC2)CC3)cc1 = 156.6
Cc1ccc(S(=O)(=O)N2CCOC23CCN(CC2CC2)CC3)cc1 [Compound C0134M] = 150.7

Okay, now this compound:
The measured MOR agonist activity ([35S]GTPγS binding), compound as agonist associated with C=CCN1CCC2(CC1)OCCN2S(=O)(=O)c1ccc(C)cc1 reads 163.1

====

Listed next: entries and their corresponding % DAMGO + BFNA.
tested system: mu opiate receptor (MOR) (Rattus norvegicus, UniProt P33535)
Construct: from tissue; host or cells: striatum (membrane preparation)
Format: biochemical
I only need the number, in %, no unit after it.

Here are 3 molecules together with their reported answers.
CC1CN(CC(O)COC2CCCCC2)CC(C)O1 (stereo not shown) [Compound A0017] = 187.9
COc1ccc(NC(=O)N2CCC3(CC2)OCCN3S(=O)(=O)c2ccc(OC)cc2)cc1 [Compound C0041] = 575.3
CC1CCC(C(C)C)C(OCC(O)CN2CCC(=O)CC2)C1 (stereo not shown) [Compound A0060] = 35.8

Okay, now this molecule:
The measured % DAMGO + BFNA associated with CC(=O)c1ccc(C(=O)N2CCC3(CC2)OCCN3S(=O)(=O)c2ccc(C(C)=O)cc2)cc1 [Compound C0052] reads 97.0
